Below is a list of entries, each paired with its recorded pEC50 value.
target: Gal-4 hPPARγ (Homo sapiens); construct: Plasmids pGal4-hPPARα, pGal4-hPPARγ, pGal4-hPPARδ and pG5-TK-pGL3 were constructed as previously described by Staels, Bart, et al., Nature 1998 Jun; 25; assay: Gal4-hPPARγ transient transfection reporter assay in Cos cells; type: cell-based; conditions: luciferase reporter, 24 hours with compound, scale 1-5, read-out: Gal-4 hPPAR γ EC50 (scaled number)
Sequence (P37231 238-505 limits assumed): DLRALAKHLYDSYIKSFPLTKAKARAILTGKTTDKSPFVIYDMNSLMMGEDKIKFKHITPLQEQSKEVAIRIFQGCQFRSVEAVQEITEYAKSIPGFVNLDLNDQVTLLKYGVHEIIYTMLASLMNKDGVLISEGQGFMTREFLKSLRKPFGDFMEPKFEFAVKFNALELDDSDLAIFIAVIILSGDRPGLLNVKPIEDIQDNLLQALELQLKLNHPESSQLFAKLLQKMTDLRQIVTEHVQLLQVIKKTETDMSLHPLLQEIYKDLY
pEC50: −log10 of the molar value.

Reference set, count: 4
MOLECULE	SYSTEM_TESTED	pEC50
CCCn1c(COC(=O)c2ccc(SC(C)(C)C(=O)O)cc2)nn(Cc2cc(C(F)(F)F)cc(C(F)(F)F)c2)c1=O [Compound 177]	Gal-4 hPPARγ (Homo sapiens)	6.00 to 6.70
CCCCCCn1c(COC(=O)c2ccc(SC(C)(C)C(=O)O)cc2)nn(Cc2ccc(C(F)(C(F)(F)F)C(F)(F)F)cc2)c1=O [Compound 203]	Gal-4 hPPARγ (Homo sapiens)	< 6.00
CCCc1nn(Cc2ccc(C(F)(F)F)cc2)cc1COC(=O)c1ccc(SC(C)(C)C(=O)O)cc1 [Compound 12]	Gal-4 hPPARγ (Homo sapiens)	< 6.00
CCCCCCn1c(COC(=O)c2ccc(SC(C)(C)C(=O)O)cc2)nn(Cc2ccc(C(C)(C)C)cc2)c1=O [Compound 187]	Gal-4 hPPARγ (Homo sapiens)	6.70 to 7.29

Which pEC50 value belongs to CCCn1c(COC(=O)c2ccc(SC(C)(C)C(=O)O)cc2)nn(Cc2ccc(F)cc2)c1=O [Compound 165] ?
< 6.00

Which pEC50 value belongs to CCCn1c(COC(=O)c2ccc(SC(C)(C)C(=O)O)cc2)nn(Cc2ccc(-c3ccccc3)cc2)c1=O [Compound 163] ?
< 6.00

Which pEC50 value belongs to Cn1nc(-c2ccccc2)cc1COC(=O)c1ccc(OC(C)(C)C(=O)O)cc1 [Compound 2] ?
< 6.00

====

assay: Metabolism studies using human liver microsomal preparations; type: in vitro ADME; settings: pH 7.4; pooled human liver microsomes, with NADPH (CYP system active), 37° C.; read-out: HLMs t1/2
READOUT_NAME: half-life (h)

Reference set, count: 5
SMILES_REPR	ENDPOINT_VALUE
Cc1ccc(Cn2cc(COC(=O)c3ccc(SC(C)(C)C(=O)O)cc3)nn2)cc1	1.5
CCCCCCCCn1c(COC(=O)c2ccc(OC(C)(C)C(=O)O)c(OC)c2)nn(Cc2ccc(C)cc2)c1=O	0.7
CCCCCCCn1c(COC(=O)c2ccc(SC(C)(C)C(=O)O)cc2)nn(Cc2ccc(C(C)(C)C)cc2)c1=O	1.5
CCCCCCCCn1c(COC(=O)c2ccc(OC(C)(C)C(=O)O)cc2)nn(Cc2ccc(C)cc2)c1=O	3
CC(C)(Sc1ccc(C(=O)OCc2cn(Cc3ccc(C(C)(C)C)cc3)nn2)cc1)C(=O)O	1

(I) C[C@@H](Cc1cn(Cc2ccc(C(F)(F)F)cc2)nn1)OC(=O)c1ccc(SC(C)(C)C(=O)O)cc1
(II) Cc1ccc(Cn2cc([C@@H](C)OC(=O)c3ccc(SC(C)(C)C(=O)O)cc3)nn2)cc1
For this pair, I and II , which shows a numerically higher half-life? # reply format: chosen label
II
(II: 2.13 h, I: 1.22 h)

====

test system: pig liver esterase; assay: Metabolism studies using pig liver esterase; format: in vitro ADME; conditions: pig liver esterase in phosphate buffer pH 7.4, no plasma, 37° C.; read-out: Pig Liver Esterase (t1/2 min.) (−) Plasma
READOUT_NAME: half-life at 4.9 µM (min)

Reference set, count: 5
SMILES_REPR	SYSTEM_TESTED	QUANTITY_UNIT	ENDPOINT_VALUE
CC(C)c1ccc(-n2nncc2COC(=O)c2ccc(SC(C)(C)C(=O)O)cc2)cc1	pig liver esterase	min	15
CCCCCCn1c(COC(=O)c2ccc(OC(C)(C)C(=O)O)cc2)nn(Cc2ccc(C(C)(C)C)cc2)c1=O	pig liver esterase	min	9
CCCCCCn1c(COC(=O)Cc2ccc(OC(C)(C)C(=O)O)cc2)nn(Cc2ccc(C)cc2)c1=O	pig liver esterase	min	19
Cc1ccc(Cn2cc([C@@H](C)OC(=O)c3ccc(SC(C)(C)C(=O)O)cc3)nn2)cc1	pig liver esterase	min	19
Cc1ccc(Cn2cc(COC(=O)c3ccc(SC(C)(C)C(=O)O)cc3)cn2)cc1	pig liver esterase	min	19

(a) C[C@@H](Cc1cn(Cc2ccc(C(F)(F)F)cc2)nn1)OC(=O)c1ccc(SC(C)(C)C(=O)O)cc1
(b) CC(C)(Sc1ccc(C(=O)OCc2cn(Cc3ccc(C(C)(C)C)cc3)nn2)cc1)C(=O)O
(c) CCCCCCn1c(COC(=O)c2ccc(OC(C)(C)C(=O)O)cc2)nn(Cc2ccc(C)cc2)c1=O
(d) CCCCCCCCn1c(COC(=O)c2ccc(OC(C)(C)C(=O)O)c(OC)c2)nn(Cc2ccc(C)cc2)c1=O
Arrange the 4 compounds from largest to smallest half-life at 4.9 µM. Please write the labels in the order that was asked for.
a, d, c, b
(a: 77 min, d: 45 min, c: 31 min, b: 14 min)

====

system: pig liver esterase; assay: Metabolism studies using pig liver esterase; assay type: in vitro ADME; conditions: pig liver esterase in human plasma protein solution, 37° C.; read-out: Pig Liver Esterase (t1/2 min.) (+) Plasma
READOUT_NAME: half-life at 4.9 µM (h)

Reference set, count: 2
SMILES_REPR	half-life at 4.9 µM / h
CCCn1c(COC(=O)c2ccc(SC(C)(C)C(=O)O)cc2)nn(Cc2ccc(C(C)(C)C)cc2)c1=O	1.62
Cc1ccc(Cn2cc([C@@H](C)OC(=O)c3ccc(SC(C)(C)C(=O)O)cc3)nn2)cc1	1.38

(A) CCCc1nn(Cc2ccc(C(F)(F)F)cc2)cc1COC(=O)c1ccc(SC(C)(C)C(=O)O)cc1
(B) CCCn1nc(Cc2ccc(C)cc2)cc1COC(=O)c1ccc(SC(C)(C)C(=O)O)cc1
(C) CCCCCCCn1c(COC(=O)c2ccc(SC(C)(C)C(=O)O)cc2)nn(Cc2ccc(C(C)(C)C)cc2)c1=O
Arrange the 3 compounds from largest to smallest half-life at 4.9 µM. Please write the labels in the order that was asked for.
C, A, B
(C: 1.75 h, A: 1.02 h, B: 0.267 h)

====

Test system: pig liver esterase
Experiment: Metabolism studies using pig liver esterase
Format: in vitro ADME
Conditions: pig liver esterase in human plasma protein solution, 37° C.; read-out: Pig Liver Esterase (t1/2 min.) (+) Plasma
Protocol: The esterase-mediated metabolism of these compounds was studied using commercially available pig liver esterase in the presence and absence of human plasma proteins. The disappearance of parent was monitored over the time course of the incubations using a LC-UV detection system. […] The samples were centrifuged at 14000 g for 15 minutes at 4° C. The supernatant was transferred to clean labeled HPLC injection vials and stored at −80° C. until analyzed. […]
READOUT_NAME: half-life at 4.9 µM (h)

COMPOUND	SYSTEM_TESTED	READOUT_NAME	ENDPOINT_VALUE
CCCCCCn1c(COC(=O)c2ccc(SC(C)(C)C(=O)O)cc2)nn(Cc2ccc(C(C)(C)C)cc2)c1=O [Compound 187]	pig liver esterase	half-life at 4.9 µM	1.07

(1) CCCn1c(COC(=O)c2ccc(OC(C)(C)C(=O)O)cc2)nn(Cc2ccc(C(=O)O[C@H](C)C(F)(F)C(F)(F)F)cc2)c1=O [Compound 174]
(2) CC(C)(Sc1ccc(C(=O)OCc2cn(Cc3ccc(C(F)(F)F)cc3)nn2)cc1)C(=O)O [Compound 67]
Among 1 and 2 , whose measured half-life at 4.9 µM is the smaller figure? # reply format: chosen label
1

====

tested on: pig liver esterase; assay: Metabolism studies using pig liver esterase; assay type: in vitro ADME; settings: pig liver esterase in human plasma protein solution, 37° C.; read-out: Pig Liver Esterase (t1/2 min.) (+) Plasma
READOUT_NAME: half-life at 4.9 µM (h)

SMILES_REPR	SYSTEM_TESTED	QUANTITY_UNIT	half-life at 4.9 µM
COC(c1ccc(Cn2cc(COC(=O)c3ccc(SC(C)(C)C(=O)O)cc3)nn2)cc1)(C(F)(F)F)C(F)(F)F	pig liver esterase	h	2.67
Cc1ccc(Cn2cc(COC(=O)c3ccc(SC(C)(C)C(=O)O)cc3)nn2)cc1	pig liver esterase	h	1.48

(1) CC(C)(Sc1ccc(C(=O)OCc2cn(Cc3ccc(C(C)(C)C)cc3)nn2)cc1)C(=O)O
(2) CC(C)c1ccc(-n2nncc2COC(=O)c2ccc(SC(C)(C)C(=O)O)cc2)cc1
Among 1 and 2 , whose measured half-life at 4.9 µM is the smaller figure? # reply format: chosen label
2
(2: 0.733 h, 1: 2.1 h)

Where do the numbers come from? From patent US20100184815A1.
